System: E. coli Neumann
Assay: minimum inhibitory concentration (MIC), series dilution method on Iso-Sensitest agar
Type: cell-based
Settings: Escherichia coli, 37° C., about 20 hours, read-out: MIC
Entries and their MIC
Quantity Measured: MIC

Molecule	Assay Value
NC12C=CC(CC1)C1CN(c3c(F)cc4c(=O)c(C(=O)O)cn(C5CC5)c4c3C(F)(F)F)CC12 (stereo not shown)	0.06 µg/mL
NC12CCC(CC1)C1CN(c3c(F)cc4c(=O)c(C(=O)O)cn(C5CC5)c4c3Cl)CC12 (stereo not shown)	0.03 µg/mL
CC1C=CC(N)C2CN(c3c(F)cc4c(=O)c(C(=O)O)cn(C5CC5)c4c3Cl)CC12 (stereo not shown) [Ref. 3, reference compound]	0.015 µg/mL
COc1c(N2CC3C4C=CC(N)(CC4)C3C2)c(F)cc2c(=O)c(C(=O)O)cn(C3CC3)c12 (stereo not shown)	0.015 µg/mL
COc1c(N2CC3C4CCC(N)(CC4)C3C2)c(F)cc2c(=O)c(C(=O)O)cn(C3CC3)c12 (stereo not shown)	0.03 µg/mL
CC1C=CC(N)C2CN(c3c(F)cc4c(=O)c(C(=O)O)cn(C5CC5)c4c3F)CC12 (stereo not shown) [Ref. 1, reference compound]	0.015 µg/mL
NC12CCC(CC1)C1CN(c3c(F)cc4c(=O)c(C(=O)O)cn(C5CC5)c4c3F)CC12 (stereo not shown)	0.03 µg/mL
NC12C=CC(CC1)C1CN(c3cc4c(cc3F)c(=O)c(C(=O)O)cn4C3CC3)CC12 (stereo not shown)	0.125 µg/mL
CNC1C=CC(C)C2CN(c3c(F)cc4c(=O)c(C(=O)O)cn(C5CC5)c4c3Cl)CC12 (stereo not shown) [Ref. 4, reference compound]	0.03 µg/mL
NC12C=CC(CC1)C1CN(c3c(F)cc4c(=O)c(C(=O)O)cn(C5CC5)c4c3F)CC12 (stereo not shown)	0.015 µg/mL
NC12C=CC(CC1)C1CN(c3c(F)cc4c(=O)c(C(=O)O)cn(C5CC5)c4c3Cl)CC12 (stereo not shown)	0.015 µg/mL
COc1c(N2CC3C(C)C=CC(N)C3C2)c(F)cc2c(=O)c(C(=O)O)cn(C3CC3)c12 (stereo not shown) [Ref. 2, reference compound]	0.015 µg/mL
NC12CCC(CC1)C1CN(c3c(F)cc4c(=O)c(C(=O)O)cn(C5CC5)c4c3C(F)(F)F)CC12 (stereo not shown)	0.015 µg/mL

###

Assay: inhibition of DNA synthesis in cells from ovaries of the Chinese hamster (CHO-KI), genotoxic potential, fluorophotometric
Assay type: cell-based
Details: hamster, cho-k1 cells, measure of the genotoxic potential, read-out: ID50 (concentration at which DNA synthesis in CHO-KI cells is inhibited by 50%)
# IC50 values compiled below

Compound	Units	IC50
COc1c(N2CC3C4CCC(N)(CC4)C3C2)c(F)cc2c(=O)c(C(=O)O)cn(C3CC3)c12 (stereo not shown)	µg/mL	16
NC12C=CC(CC1)C1CN(c3c(F)cc4c(=O)c(C(=O)O)cn(C5CC5)c4c3Cl)CC12 (stereo not shown)	µg/mL	4
NC12CCC(CC1)C1CN(c3c(F)cc4c(=O)c(C(=O)O)cn(C5CC5)c4c3C(F)(F)F)CC12 (stereo not shown)	µg/mL	10
NC12CCC(CC1)C1CN(c3c(F)cc4c(=O)c(C(=O)O)cn(C5CC5)c4c3F)CC12 (stereo not shown)	µg/mL	1
NC12C=CC(CC1)C1CN(c3cc4c(cc3F)c(=O)c(C(=O)O)cn4C3CC3)CC12 (stereo not shown)	µg/mL	24
COc1c(N2CC3C4C=CC(N)(CC4)C3C2)c(F)cc2c(=O)c(C(=O)O)cn(C3CC3)c12 (stereo not shown)	µg/mL	8
NC12C=CC(CC1)C1CN(c3c(F)cc4c(=O)c(C(=O)O)cn(C5CC5)c4c3C(F)(F)F)CC12 (stereo not shown)	µg/mL	10
NC12C=CC(CC1)C1CN(c3c(F)cc4c(=O)c(C(=O)O)cn(C5CC5)c4c3F)CC12 (stereo not shown)	µg/mL	1
NC12CCC(CC1)C1CN(c3c(F)cc4c(=O)c(C(=O)O)cn(C5CC5)c4c3Cl)CC12 (stereo not shown)	µg/mL	4
CNC1C=CC(C)C2CN(c3c(F)cc4c(=O)c(C(=O)O)cn(C5CC5)c4c3Cl)CC12 (stereo not shown) [Ref. 4, reference compound]	µg/mL	0.1

###

Recorded MIC for the following compounds
Test system: Staph. aureus ICB 25701
Test: minimum inhibitory concentration (MIC), series dilution method on Iso-Sensitest agar
Type: cell-based
Conditions: Staphylococcus aureus, ICB25701, 37° C., about 20 hours, read-out: MIC
Quantity Measured: MIC (µg/mL)

Compound	Assay Value
COc1c(N2CC3C4C=CC(N)(CC4)C3C2)c(F)cc2c(=O)c(C(=O)O)cn(C3CC3)c12 (stereo not drawn)	0.031
CC1C=CC(N)C2CN(c3c(F)cc4c(=O)c(C(=O)O)cn(C5CC5)c4c3Cl)CC12 (stereo not drawn) [Ref. 3, reference compound]	0.015
NC12C=CC(CC1)C1CN(c3cc4c(cc3F)c(=O)c(C(=O)O)cn4C3CC3)CC12 (stereo not drawn)	8
NC12CCC(CC1)C1CN(c3c(F)cc4c(=O)c(C(=O)O)cn(C5CC5)c4c3C(F)(F)F)CC12 (stereo not drawn)	0.125
NC12C=CC(CC1)C1CN(c3c(F)cc4c(=O)c(C(=O)O)cn(C5CC5)c4c3Cl)CC12 (stereo not drawn)	0.031
NC12C=CC(CC1)C1CN(c3c(F)cc4c(=O)c(C(=O)O)cn(C5CC5)c4c3C(F)(F)F)CC12 (stereo not drawn)	0.125
NC12CCC(CC1)C1CN(c3c(F)cc4c(=O)c(C(=O)O)cn(C5CC5)c4c3F)CC12 (stereo not drawn)	0.25
COc1c(N2CC3C(C)C=CC(N)C3C2)c(F)cc2c(=O)c(C(=O)O)cn(C3CC3)c12 (stereo not drawn) [Ref. 2, reference compound]	0.015
NC12C=CC(CC1)C1CN(c3c(F)cc4c(=O)c(C(=O)O)cn(C5CC5)c4c3F)CC12 (stereo not drawn)	0.062
COc1c(N2CC3C4CCC(N)(CC4)C3C2)c(F)cc2c(=O)c(C(=O)O)cn(C3CC3)c12 (stereo not drawn)	0.125
CC1C=CC(N)C2CN(c3c(F)cc4c(=O)c(C(=O)O)cn(C5CC5)c4c3F)CC12 (stereo not drawn) [Ref. 1, reference compound]	0.06
NC12CCC(CC1)C1CN(c3c(F)cc4c(=O)c(C(=O)O)cn(C5CC5)c4c3Cl)CC12 (stereo not drawn)	0.06
